# System: HCV Replicon IB
# assay_info: HCV replicon assay in Huh-7 cells, genotype 1b (Rluc luciferase readout)
# Type: cell-based, hepatitis C virus
# protocol_conditions: Hepatitis C virus, Huh-7, 72 h, HCV1B replicon, Huh-7 cells, 3 days; read-out: EC50_HCV1B_
parameter_measured: EC50 (nM)
Respond with the bare value in nM.

// below: answered molecules
Cc1cc(-c2nnc(N[C@H]3CC[C@@H](O)C3)o2)nc2c(C(C)(C)C)cc(OCC(F)(F)F)cc12 (racemic) :: 1.32
CC(C)(C)c1cc(C2CC2)cc2c(N)cc(-c3nnc(NCCCO)o3)nc12 :: 4.87
Cc1cc(-c2nnc(NCC3OCCO3)o2)nc2c(C(C)(C)C)cc(OCC(F)F)cc12 :: 1.64

Lookup: Assign EC50 to the following record: Cc1cc(-c2nnc(N[C@H]3CC[C@H](O)CC3)o2)nc2c(C(C)(C)C)cc(OCC(F)(F)F)cc12
Found: 8.74
